Exercise: for every item that follows, state its recorded Distribution coefficient.
protocol-details: Distribution coefficient of compound was determined in octanol-water system
Assay type: physicochemical

- CC(C)OC(=O)CCc1cc(CN2CCCC2)c(O)c(CN2CCCC2)c1: 0.62
- CC(C)OC(=O)Cc1cc(CN2CCCC2)c(O)c(CN2CCCC2)c1: 0.39
- CCCCOC(=O)CCCc1cc(CN2CCCC2)c(O)c(CN2CCCC2)c1: 12.8

Go through the items and report each one's Distribution coefficient.
1. CCN(CC)CC(=O)Nc1c(C)cccc1C
2. O=C(NCC1CCCCN1)c1cc(OCC(F)(F)F)ccc1OCC(F)(F)F (configuration not stated) [FLECAINIDE]
3. CCOC(=O)Cc1cc(CN2CCCC2)c(O)c(CN2CCCC2)c1

1: 19.19; 2: 13.71; 3: 0.18

Lab note: each molecule below needs its Distribution coefficient filled in.
1. CCCCOC(=O)Cc1cc(CN2CCCC2)c(O)c(CN2CCCC2)c1
2. CCCOC(=O)CCc1cc(CN2CCCC2)c(O)c(CN2CCCC2)c1
3. CC(C)COC(=O)CCCc1cc(CN2CCCC2)c(O)c(CN2CCCC2)c1

1.5
0.78
7.24

Record Distribution coefficient for all entries; do not skip any.
1. CC(C)COC(=O)CCc1cc(CN2CCCC2)c(O)c(CN2CCCC2)c1
2. O=C(Nc1ccccc1)c1cc(CN2CCCC2)c(O)c(CN2CCCC2)c1
3. CCCOC(=O)Cc1cc(CN2CCCC2)c(O)c(CN2CCCC2)c1
4. CC(C)COC(=O)c1cc(CN2CCCC2)c(O)c(CN2CCCC2)c1
5. CC(C)OC(=O)c1cc(CN2CCCC2)c(O)c(CN2CCCC2)c1
6. CCCCOC(=O)CCc1cc(CN2CCCC2)c(O)c(CN2CCCC2)c1
7. CC(C)COC(=O)Cc1cc(CN2CCCC2)c(O)c(CN2CCCC2)c1

1.54
0.42
0.43
1.47
0.37
2
1.25

Need Distribution coefficient, item CCC(C)OC(=O)c1cc(CN2CCCC2)c(O)c(CN2CCCC2)c1 (configuration not stated)
1.12

* * *

protocol-details: Biological half-life was evaluated in whole human blood
Format: ADME, organism-based
property: half-life

Some compounds with known half-life results, for comparison:
- CCCOC(=O)CCCc1cc(CN2CCCC2)c(O)c(CN2CCCC2)c1: 2.1 min
- CCCOC(=O)Cc1cc(CN2CCCC2)c(O)c(CN2CCCC2)c1: 18.5 min
- CCCOC(=O)CCc1cc(CN2CCCC2)c(O)c(CN2CCCC2)c1: 36.1 min
- CC(C)COC(=O)CCc1cc(CN2CCCC2)c(O)c(CN2CCCC2)c1: 25.9 min
- CC(C)COC(=O)Cc1cc(CN2CCCC2)c(O)c(CN2CCCC2)c1: 8.7 min

Each compound below has a recorded value; state its half-life.
1. CCCCOC(=O)CCc1cc(CN2CCCC2)c(O)c(CN2CCCC2)c1
2. CCCCOC(=O)Cc1cc(CN2CCCC2)c(O)c(CN2CCCC2)c1
3. CCCCOC(=O)CCCc1cc(CN2CCCC2)c(O)c(CN2CCCC2)c1
4. CC(C)COC(=O)CCCc1cc(CN2CCCC2)c(O)c(CN2CCCC2)c1

["22.1 min", "9.5 min", "0.77 min", "1.96 min"]

* * *

Give measured EC50 for each item. Keep answers brief.
Species on record: Cavia porcellus
protocol-details: Inhibition of acetylstrophantidin induced arrhythmia in guinea pig isolated right atria.
Type: functional
condition-notes: read-out: ED50 (the source's name)

* O=C(O)c1cc(CN2CCCC2)c(O)c(CN2CCCC2)c1 | > 30 µg/mL
* O=C(O)Cc1cc(CN2CCCC2)c(O)c(CN2CCCC2)c1 | > 200 µg/mL

Next:
Which measured EC50 value corresponds to O=C(O)CCc1cc(CN2CCCC2)c(O)c(CN2CCCC2)c1 ?
> 1000 µg/mL

Data provenance: ChEMBL document CHEMBL1124564
